- methodDescription: Dissolution of the synthesized peptides
- Format: physicochemical
- conditionParameters: molecular biology grade water; 25% acetic acid for A229
No end group written: not given here.
parameterMeasured: solubility of the peptide, in words

NASIAADHEVSQE [AAD]    insoluble in H2O
NASIRADHEVSQE [RAD]    insoluble in H2O

Sourced from patent US12428648B2
